Numbers sourced from ChEMBL document CHEMBL1139332.

# System: Mycobacterium tuberculosis
# measurement notes: Antimicrobial activity against Mycobacterium tuberculosis H37Rv by microplate alamar blue assay
# Format: functional
measured endpoint: MIC (mg/L)
Please respond with the number in mg/L and leave the unit unwritten.

Would you please look over these solved cases?
Cc1cc2c(cc1C)[n+]([O-])c(-c1ccc(F)cc1)c(C#N)[n+]2[O-] = 1.69
COC(=O)c1ccc(-c2c(C#N)[n+]([O-])c3cc(C)ccc3[n+]2[O-])cc1 = 0.39
CCOC(=O)c1c(-c2ccccc2)[n+]([O-])c2ccc(C)cc2[n+]1[O-] = 1.56
Cc1ccc2c(c1)[n+]([O-])c(C#N)c(-c1ccc(Cl)cc1)[n+]2[O-] = 0.39
CCOC(=O)c1c(-c2ccc(C)cc2)[n+]([O-])c2ccccc2[n+]1[O-] = 0.78

Returns the measured MIC for the input compound. Input: `Cc1ccc(-c2c(C#N)[n+]([O-])c3cc(C)ccc3[n+]2[O-])cc1` 0.78

Returns the measured MIC for the input compound. Input: `CCOC(=O)c1c(-c2ccc(OC)cc2)[n+]([O-])c2ccccc2[n+]1[O-]` 1.56

Returns the measured MIC for the input compound. Input: `Cc1ccc(-c2c(C#N)[n+]([O-])c3cc(C)c(C)cc3[n+]2[O-])cc1` 1.56

Returns the measured MIC for the input compound. Input: `CCOC(=O)c1c(-c2ccccc2)[n+]([O-])c2ccccc2[n+]1[O-]` 1.56

Returns the measured MIC for the input compound. Input: `CCOC(=O)c1c(-c2ccc([N+](=O)[O-])cc2)[n+]([O-])c2ccccc2[n+]1[O-]` 0.78

Returns the measured MIC for the input compound. Input: `COc1ccc2c(c1)[n+]([O-])c(C#N)c(-c1ccc(Cl)cc1)[n+]2[O-]` 0.78

* * *

# System: Mycobacterium tuberculosis
# measurement notes: Antimicrobial activity against Mycobacterium tuberculosis H37Rv by microplate alamar blue assay
# Format: functional
measured endpoint: MIC (µg/mL)
Please respond with the number in µg/mL and leave the unit unwritten.

Would you please look over these solved cases?
CCOC(=O)c1c(-c2ccccc2)[n+]([O-])c2cc(C)c(C)cc2[n+]1[O-] = 6.25
Cc1ccc2c(c1)[n+]([O-])c(C#N)c(-c1ccccc1)[n+]2[O-] = 0.39
COC(=O)c1ccc(-c2c(C#N)[n+]([O-])c3ccccc3[n+]2[O-])cc1 = 0.78

Returns the measured MIC for the input compound. Input: `Cc1c(C(=O)OCc2ccccc2)[n+]([O-])c2cc(Cl)ccc2[n+]1[O-]` 0.1

Returns the measured MIC for the input compound. Input: `Cc1ccc(-c2c(C#N)[n+]([O-])c3cc(Cl)c(Cl)cc3[n+]2[O-])cc1` 3.13

Returns the measured MIC for the input compound. Input: `CCOC(=O)c1c(-c2ccccc2)[n+]([O-])c2cc(F)c(F)cc2[n+]1[O-]` 1.56

Returns the measured MIC for the input compound. Input: `N#Cc1c(-c2ccccc2)[n+]([O-])c2ccc(Cl)cc2[n+]1[O-]` 0.39

Returns the measured MIC for the input compound. Input: `COC(=O)c1ccc(-c2c(C#N)[n+]([O-])c3cc(Cl)ccc3[n+]2[O-])cc1` 3.13

Returns the measured MIC for the input compound. Input: `COc1ccc2c(c1)[n+]([O-])c(C#N)c(-c1ccc(C)cc1)[n+]2[O-]` 1.56

Returns the measured MIC for the input compound. Input: `CO[C@H]1/C=C/O[C@@]2(C)Oc3c(C)c(O)c4c(O)c(c(/C=N/N5CCN(C)CC5)c(O)c4c3C2=O)NC(=O)/C(C)=C\C=C\[C@H](C)[C@H](O)[C@@H](C)[C@@H](O)[C@@H](C)[C@H](OC(C)=O)[C@@H]1C` 0.125
